Assay: Single ascending dose
Assay type: in vivo, human
Settings: human, plasma, oral, 60 mg, AUC(0‐T), SAD panel 3, 60 mg, fasted, n = 6; geometric mean (geometric CV%)
measuredProperty: AUC (ng·h/mL)

[[record]]
compound = "C[C@@H]1CCC[C@H](n2cnc(-c3cc(Cl)ccc3-n3cc(Cl)nn3)cc2=O)c2cc(ccn2)-c2c(cnn2C(F)F)NC1=O [milvexian]"
measuredproperty = "AUC"
datavalue = 3790


* * *

Experiment: Multiple ascending dose
Settings: human, in vivo, 20 mg, AUC(TAU), MAD panel 8, 20 mg q.d. fasted, day 14, n = 6; geometric mean (geometric CV%)
measuredProperty: AUC

[[record]]
smi = "C[C@@H]1CCC[C@H](n2cnc(-c3cc(Cl)ccc3-n3cc(Cl)nn3)cc2=O)c2cc(ccn2)-c2c(cnn2C(F)F)NC1=O"
measuredproperty = "AUC"
datavalue = "1370 ng·h/mL"


* * *

Experiment: Single ascending dose
Format: in vivo, human
Conditions: human, plasma, oral, 500 mg, AUC(0‐T), SAD panel 6, 500 mg, fasted, n = 6; geometric mean (geometric CV%)
measuredProperty: AUC (ng·h/mL)

[[record]]
smi = "C[C@@H]1CCC[C@H](n2cnc(-c3cc(Cl)ccc3-n3cc(Cl)nn3)cc2=O)c2cc(ccn2)-c2c(cnn2C(F)F)NC1=O"
unittag = "ng·h/mL"
datavalue = 21000


* * *

Assay: Single ascending dose
Assay type: in vivo, human
Details: human, plasma, oral, Tmax, summary in discussion, rapid absorption
measuredProperty: Tmax

[[record]]
smi = "C[C@@H]1CCC[C@H](n2cnc(-c3cc(Cl)ccc3-n3cc(Cl)nn3)cc2=O)c2cc(ccn2)-c2c(cnn2C(F)F)NC1=O"
datavalue = "2 to 4 h"


* * *

Assay: Multiple ascending dose
Details: human, in vivo, 5 mg, AUC(0‐T), MAD panel 7, 5 mg q.d. fasted, day 14, n = 5; geometric mean (geometric CV%)
measuredProperty: AUC (ng·h/mL)

[[record]]
smi = "C[C@@H]1CCC[C@H](n2cnc(-c3cc(Cl)ccc3-n3cc(Cl)nn3)cc2=O)c2cc(ccn2)-c2c(cnn2C(F)F)NC1=O"
unittag = "ng·h/mL"
datavalue = 146


* * *

Test: Multiple ascending dose
Settings: human, in vivo, 5 mg, AUC(TAU), MAD panel 7, 5 mg q.d. fasted, day 14, n = 5; geometric mean (geometric CV%)
measuredProperty: AUC (ng·h/mL)

[[record]]
smi = "C[C@@H]1CCC[C@H](n2cnc(-c3cc(Cl)ccc3-n3cc(Cl)nn3)cc2=O)c2cc(ccn2)-c2c(cnn2C(F)F)NC1=O"
unittag = "ng·h/mL"
datavalue = 146


* * *

Test: Multiple ascending dose
Conditions: human, in vivo, 70 mg, AUC(TAU), MAD panel 9, 70 mg q.d. fasted, day 14, n = 5; geometric mean (geometric CV%)
measuredProperty: AUC

[[record]]
smi = "C[C@@H]1CCC[C@H](n2cnc(-c3cc(Cl)ccc3-n3cc(Cl)nn3)cc2=O)c2cc(ccn2)-c2c(cnn2C(F)F)NC1=O"
datavalue = "4220 ng·h/mL"


* * *

Assay: Single ascending dose
Format: in vivo, human
Details: human, plasma, oral, 500 mg, Cmax, SAD panel 6, 500 mg, fed (high-fat breakfast), n = 6; geometric mean (geometric CV%)
measuredProperty: Cmax (ng/mL)

[[record]]
compound = "C[C@@H]1CCC[C@H](n2cnc(-c3cc(Cl)ccc3-n3cc(Cl)nn3)cc2=O)c2cc(ccn2)-c2c(cnn2C(F)F)NC1=O [milvexian]"
datavalue = 3360


* * *

Test: Multiple ascending dose
Details: human, in vivo, 20 mg, AUC(0‐T), MAD panel 8, 20 mg q.d. fasted, day 14, n = 6; geometric mean (geometric CV%)
measuredProperty: AUC (ng·h/mL)

[[record]]
smi = "C[C@@H]1CCC[C@H](n2cnc(-c3cc(Cl)ccc3-n3cc(Cl)nn3)cc2=O)c2cc(ccn2)-c2c(cnn2C(F)F)NC1=O"
measuredproperty = "AUC"
datavalue = 1660


* * *

Experiment: Multiple ascending dose
Conditions: human, in vivo, 20 mg, Tmax, MAD panel 8, 20 mg q.d. fasted, day 14, n = 6; median (min-max)
measuredProperty: Tmax (h)

[[record]]
molecule = "C[C@@H]1CCC[C@H](n2cnc(-c3cc(Cl)ccc3-n3cc(Cl)nn3)cc2=O)c2cc(ccn2)-c2c(cnn2C(F)F)NC1=O [milvexian]"
datavalue = 2.5


* * *

Experiment: Single ascending dose
Assay type: in vivo, human
Conditions: human, plasma, oral, 300 mg, AUC(0‐T), SAD panel 5, 300 mg, fasted, n = 6; geometric mean (geometric CV%)
measuredProperty: AUC (ng·h/mL)

[[record]]
compound = "C[C@@H]1CCC[C@H](n2cnc(-c3cc(Cl)ccc3-n3cc(Cl)nn3)cc2=O)c2cc(ccn2)-c2c(cnn2C(F)F)NC1=O [milvexian]"
datavalue = 14600


* * *

Test: Multiple ascending dose
Conditions: human, in vivo, mean T1/2, range across MAD panels, MAD
measuredProperty: half-life

[[record]]
smi = "C[C@@H]1CCC[C@H](n2cnc(-c3cc(Cl)ccc3-n3cc(Cl)nn3)cc2=O)c2cc(ccn2)-c2c(cnn2C(F)F)NC1=O"
measuredproperty = "half-life"
datavalue = "11.4 to 18.1 h"


* * *

Experiment: Multiple ascending dose
Details: human, in vivo, 20 mg, Cmax, MAD panel 8, 20 mg q.d. fasted, day 14, n = 6; geometric mean (geometric CV%)
measuredProperty: Cmax at 14 days (ng/mL)

[[record]]
molecule = "C[C@@H]1CCC[C@H](n2cnc(-c3cc(Cl)ccc3-n3cc(Cl)nn3)cc2=O)c2cc(ccn2)-c2c(cnn2C(F)F)NC1=O [milvexian]"
measuredproperty = "Cmax at 14 days"
unittag = "ng/mL"
datavalue = 171


* * *

Experiment: Multiple ascending dose
Details: human, in vivo, 200 mg, Cmax, MAD panel 10, 200 mg q.d. fasted, day 14, n = 6; geometric mean (geometric CV%)
measuredProperty: Cmax at 14 days (ng/mL)

[[record]]
smi = "C[C@@H]1CCC[C@H](n2cnc(-c3cc(Cl)ccc3-n3cc(Cl)nn3)cc2=O)c2cc(ccn2)-c2c(cnn2C(F)F)NC1=O"
datavalue = 1510


* * *

Experiment: Multiple ascending dose
Settings: human, in vivo, 500 mg, Tmax, MAD panel 11, 500 mg q.d. fed, day 14, n = 6; median (min-max)
measuredProperty: Tmax (h)

[[record]]
smi = "C[C@@H]1CCC[C@H](n2cnc(-c3cc(Cl)ccc3-n3cc(Cl)nn3)cc2=O)c2cc(ccn2)-c2c(cnn2C(F)F)NC1=O"
unittag = "h"
datavalue = 4


* * *

Experiment: Multiple ascending dose
Conditions: human, in vivo, 500 mg, AUC(TAU), MAD panel 11, 500 mg q.d. fed, day 14, n = 6; geometric mean (geometric CV%)
measuredProperty: AUC (ng·h/mL)

[[record]]
compound = "C[C@@H]1CCC[C@H](n2cnc(-c3cc(Cl)ccc3-n3cc(Cl)nn3)cc2=O)c2cc(ccn2)-c2c(cnn2C(F)F)NC1=O [milvexian]"
unittag = "ng·h/mL"
datavalue = 95100


* * *

Assay: Multiple ascending dose
Conditions: human, in vivo, 5 mg, Tmax, MAD panel 7, 5 mg q.d. fasted, day 14, n = 5; median (min-max)
measuredProperty: Tmax (h)

[[record]]
compound = "C[C@@H]1CCC[C@H](n2cnc(-c3cc(Cl)ccc3-n3cc(Cl)nn3)cc2=O)c2cc(ccn2)-c2c(cnn2C(F)F)NC1=O [milvexian]"
datavalue = 2.03


* * *

Assay: Single ascending dose
Assay type: in vivo, human
Conditions: human, plasma, oral, 200 mg, AUC(0‐T), SAD panel 4, 200 mg, fed, n = 6; geometric mean (geometric CV%)
measuredProperty: AUC (ng·h/mL)

[[record]]
compound = "C[C@@H]1CCC[C@H](n2cnc(-c3cc(Cl)ccc3-n3cc(Cl)nn3)cc2=O)c2cc(ccn2)-c2c(cnn2C(F)F)NC1=O [milvexian]"
measuredproperty = "AUC"
datavalue = 17800


* * *

Experiment: Single ascending dose
Format: in vivo, human
Conditions: human, plasma, oral, 4 mg, AUC(0‐T), SAD panel 1, 4 mg, fasted, n = 6; geometric mean (geometric CV%)
measuredProperty: AUC (ng·h/mL)

[[record]]
smi = "C[C@@H]1CCC[C@H](n2cnc(-c3cc(Cl)ccc3-n3cc(Cl)nn3)cc2=O)c2cc(ccn2)-c2c(cnn2C(F)F)NC1=O"
unittag = "ng·h/mL"
datavalue = 125


* * *

Assay: Single ascending dose
Format: in vivo, human
Settings: human, plasma, oral, 20 mg, AUC(0‐T), SAD panel 2, 20 mg, fasted, n = 6; geometric mean (geometric CV%)
measuredProperty: AUC

[[record]]
smi = "C[C@@H]1CCC[C@H](n2cnc(-c3cc(Cl)ccc3-n3cc(Cl)nn3)cc2=O)c2cc(ccn2)-c2c(cnn2C(F)F)NC1=O"
datavalue = "1220 ng·h/mL"


* * *

Experiment: Multiple ascending dose
Conditions: human, in vivo, 500 mg, Cmax, MAD panel 11, 500 mg q.d. fed, day 14, n = 6; geometric mean (geometric CV%)
measuredProperty: Cmax (ng/mL)

[[record]]
molecule = "C[C@@H]1CCC[C@H](n2cnc(-c3cc(Cl)ccc3-n3cc(Cl)nn3)cc2=O)c2cc(ccn2)-c2c(cnn2C(F)F)NC1=O [milvexian]"
datavalue = 7600

